Experimental Target: T1, Recombinant human IL-1beta (rhIL-1b) (human, UniProt P01584 117-269)
T1 construct: R&D Systems Cat. No. 201-LB/CF; also called IL-1β; human IL-1β
Measurement Notes: Biacore low-res, mAb captured, 25C; IL-1β in solution (118 nM) over captured mAb; low-resolution Biacore, 25 C
Measure Name: kon (M⁻¹ s⁻¹)
Dear colleague, please return just the value in M⁻¹ s⁻¹, with no unit written.

Answered examples (3):
{"columns": ["Binder", "Display Unit", "Obs Value"],
 "data": [
  ["9.26.1 (antibody, human IgG4, V domains shown, lambda; also called 9.26.3) VH: QVQLVESGGGVVQPGRSLRLSCAASGFTFNNYGMHWVRQAPGKGLECVAVIWYDGGNKYYADSVKGRFAISRDNSKNTLYLQMNSLRAEDTAVYYCTAVTKLNYYYGMDVWGQGTTVTVS VL: QSALTQPASVSGSPGQSITISCTGTSSDVGGYNYVSWYQQHPGKAPKLMIYEVSNRPSGVSNRFSGSKSGNTASLTISGLQAEDEADYYCSSYTSSSILVFGGGTKLTVL", "M⁻¹ s⁻¹", 410000],
  ["9.19.1 (antibody, human IgG4, V domains shown, lambda; also called mAb 9.19.1) VH: QVQLVESGGGVVQPGRSLRLSCAASGFTFNNYGMHWVRQAPGKGLECVAVIWYDGGNKYYADSVKGRFAISRDNSKNTLYLQMNSLRAEDTAVYYCTAVTKLNYYYGMDVWGQRTTVTVS VL: QSALTQPASVSGSPGQSITISCTGTSSDVGGYNYVSWYQQHPGKAPKFMIYEVSNRPSGVSNRFSGSKSGNTASLTISGLQAEDEADYYCSSYTSSSILVFGGGTKLTVL", "M⁻¹ s⁻¹", 560000],
  ["9.31.1 (antibody, human IgG4, V domains shown, lambda; also called 9.31.3) VH: QVQLVESGGGLVKPGGSLRLSCAASGFTFSDYYMSWIRQAPGKGLEWVSYIRSSGSTIYYADSVKGRFTISRDNAKNSLYLQMNSLRAEDTAVYYCARTPYSGRYHWYFDLWGRGTLVTVS VL: SYELTQPPSVSVSPGQTARITCSGDALPIKYAYWYQHKSGQAPVLVIYEDSKRPSGIPERFSGSSSGTMATLTISGAQVEDEADYYCYSTDSSGNHRVFGGGTKLTVL", "M⁻¹ s⁻¹", 660000]
]}

[ask] Need kon, item 9.54.1 (antibody, human IgG4, V domains shown, lambda; also called 9.54.2) VH: QVQLVESGGGVVQPGRSLRLSCAASGFTFSSFGMHWVRQAPGKGLEWVAVIWYDGSNKYYADSVKGRFTISRDNSKNTLYLQMNSLRAEDTAVYYCARDPNYDILTGYYYYGMDVWGQGTTVTVS VL: SSELTQDPAVSVALGQTVRITCQGDILRTYYASWYQQKPGQAPVLVIYGKNDRPSGIPDRFSGSSSGNTASLTITGAQAEDEADYYCDSRDNTVTHLVFGGGTKLTVL
[reply] 2.3e+06

[ask] Need kon, item 8.18.1 (antibody, human IgG4, V domains shown, lambda; also called mAb 8.18.1) VH: QVQLQESGPGLVKPSETLSLTCTVSGGSVSSGGYYWSWIRQPPGKGLEWIGYFYYSGSPNYNPSLKRRIAISVDTSKNQFSLRLSSVTAADTAVYYCARDPMHYYGMDVWGQGTTVTVSS VL: SSELTQPPSVSVFPGQTANITCSGDKLGDKFACWYQQKPGQSPVLVIYRDNKRPSGIPERFSGSNSGNTATLTISGTQAMDEADYYCQAWDSSTYVVFGGGTKLTVL
[reply] 350000

[ask] Need kon, item 5.36.1 (antibody, human IgG4, V domains shown, kappa) VH: QVQLQQSGPGLVKPSQTLSLTCAISGDSVSSNSAAWNWIRQSPSRGLEWLGRTYYRSKWYNDYAVSVKSRITINPDTSKNQFSLQLNSVTPEDTAVYYCAREEQQLVRYYYYYGMDVWGQGTTVTVS VL: DIVMTQTPLSLSVTPGQPASISCKSSQSLLHSDGRTYLYWYLQRPGQPPQLLIYEASYRFSGVPDRFSGSGSGTDFTLKISRVEAEDVGIYYCMQSIQLPRTFGQGTRLEIK
[reply] 590000

[ask] Need kon, item 9.11.1 (antibody, human IgG4, V domains shown, lambda; also called 9.11.3) VH: QVQLVESGGGVVQPGRSLRLSCAASGFTFSVYGMHWVRQAPGKGLEWVAVIWYDGNNKYYVDSVKGRFTISRDNSKNTLYLQLNSLRAEDTAVYYCARERSSSWYFDYWGQGTLVTVSS VL: QSALTQPASVSGSSGQSITISCTGTSSDVGSYNLVSWYQQHPGKAPKLMIYEVSKRPSGVSNRFSGSKSGNTASLTISGLQAEDEADYYCCSYAGNSNWVFGGGTKLTVL
[reply] 690000

[ask] Need kon, item 8.50.1 (antibody, human IgG4, V domains shown, lambda) VH: QVQLQESGPGLVKPSETLSLTCTVSGGSISSDYWSWIRQPAGKGLEWIGRFYNSGRTNYRPSLKSRITMSVDTSKNQFSLKLSSVTAADTAVYYCARDMYSGRGNWYFDLWGRGTLVTVS VL: SYELTQPPSVSVSPGQTARITCSGDALPKKYAYWYQQKSGQAPVLVIYEDSKRPSGIPERFSGSSSGTMATLTISGAQVEDEADYYCYSTDSSDNHRVFGGGTKLTVL
[reply] 3e+06

[ask] Need kon, item 6.33.1 (antibody, human IgG4, V domains shown, lambda; also called mAb 6.33.1) VH: QVQLVESGGGVVQPGRSLRLSCAASGFTFSVYGMHWVRQAPGKGLEWVAVIWYDGSNKYYADSVKGRFTISRDNSKNTLYLQMNSLRAEDTAVYYCAREKSSGWFFDYWGQGTLVTVSS VL: QSALTQPASVSGSPGQSITISCTGTSSDVGSYNLVSWYQQHPGKAPKLMIYEVSKRPSGISNRFSGSKSGNTASLTISGLQAEDEADYYCCSYAGNSIWVFGGGTKLTVL
[reply] 500000

[ask] Need kon, item 9.2.1 (antibody, human IgG4, V domains shown, lambda) VH: QVQLVESGGGVVQPGRSLRLSCAASGFTFNNYGMHWVRQAPGKGLECVAVIWYDGGNKYYADSVKGRFAISRDNSKNTLYLQMNSLRAEDTAVYYCTAVTTLYYYYGMDVWGQGTTVTVS VL: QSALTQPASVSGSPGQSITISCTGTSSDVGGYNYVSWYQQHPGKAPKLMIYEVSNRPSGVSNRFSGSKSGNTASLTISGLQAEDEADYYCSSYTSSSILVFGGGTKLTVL
[reply] 990000

[ask] Need kon, item 6.26.1 (antibody, human IgG4, V domains shown, lambda; also called 6.26.4) VH: QLQLQESGPGLVKPSETLSLTCTVSGGSISRSSYYWGWIRQPPGKGLEWMGNIYYSGSTHYNPSLKSRVTISVDTSKNQFSLKLSSVTAADTAVFYCAKGREYISSSGYGMDVWGQGTTVTVS VL: SYELTQPPSVSVSPGQTASITCSGDKLGNKYVCWYQQKPGQSPVLVIFQDSRRPSGIPERFSGSNSGNTATLTISGTQAMDEADYYCQAWDTSTVIFGGGTKLTVL
[reply] 920000
